- System: wheat
- Assay method text: Test A pre-/postemergence greenhouse test
- Assay type: in vivo, Triticum aestivum
- Experimental conditions: Preemergence, 500 g ai/ha; 0 to 100 scale, 0 no effect, 100 complete control
- Text: Seeds of barnyardgrass (Echinochloa crus-galli), crabgrass (Digitaria sanguinalis), giant foxtail (Setaria faberi), morningglory (Ipomoea spp.), redroot pigweed (Amaranthus retroflexus), velvetleaf (Abutilon theophrasti), wheat (Triticum aestivum), and corn (Zea mays) were planted into a blend of loam soil and sand and treated preemergence with a directed soil spray using test compounds formulated in a non-phytotoxic solvent mixture which included a surfactant. […]
In plain terms, low Wheat plant response rating, meaning strictly below 80, gives true, and everything else gives false.

Take the compound Cn1nc(C(F)(F)F)c(C[S+]([O-])c2ccc(Cl)c[n+]2[O-])c1OCC(F)F (stereo not shown) and say whether its Wheat plant response rating is less than 80. false

Take the compound `Cn1nc(C(F)(F)F)c(CS(=O)(=O)c2ccc(F)c[n+]2[O-])c1OCC(F)(F)F` and say whether its Wheat plant response rating is less than 80. true

Take the compound CCc1cc[n+]([O-])c([S+]([O-])Cc2c(C(F)(F)F)nn(C)c2OC(F)F)c1 (stereo not shown) and say whether its Wheat plant response rating is less than 80. false

Take the compound `Cn1nc(C(F)(F)F)c(CS(=O)(=O)c2cc(C3CC3)cc[n+]2[O-])c1OC(F)F` and say whether its Wheat plant response rating is less than 80. true

Take the compound `Cc1cc[n+]([O-])c(S(=O)(=O)Cc2c(C(F)(F)F)nn(C)c2OCC(F)F)c1` and say whether its Wheat plant response rating is less than 80. false

Take the compound Cn1nc(C(F)(F)F)c(C[S+]([O-])c2cc(C3CC3)cc[n+]2[O-])c1OCC(F)(F)F (stereo not shown) and say whether its Wheat plant response rating is less than 80. false

Take the compound Cc1cc[n+]([O-])c([S+]([O-])Cc2c(C(F)(F)C(F)(F)F)nn(C)c2OCC(F)(F)F)c1 (stereo not shown) and say whether its Wheat plant response rating is less than 80. false

Take the compound CC(C)c1cc[n+]([O-])c([S+]([O-])Cc2c(C(F)(F)F)nn(C)c2OCC(F)(F)F)c1 (stereo not shown) and say whether its Wheat plant response rating is less than 80. false

These measurements were taken from patent US20100298141A1.
